- Assay text: Solubility of Form A in water
- Assay type: physicochemical
- Experimental conditions: aqueous buffer, from pH 4-8
Measurement label: solubility

Ask: Read the entry O=C1Nc2ccccc2C(c2ccccc2)=N[C@@H]1Nc1nnc(-c2ncc(C(F)(F)F)cc2N2CCOCC2)o1 [Form A] and write its reported solubility.
Result: ~2 µg/mL

###

- Assay text: Solubility of Form A in water
- Type: physicochemical
- Experimental conditions: simulated gastric fluid, at pH 1
Measurement label: solubility (µg/mL)
Entry rule: numbers only, all in µg/mL.

Ask: Tell us which solubility value is on record for O=C1Nc2ccccc2C(c2ccccc2)=N[C@@H]1Nc1nnc(-c2ncc(C(F)(F)F)cc2N2CCOCC2)o1 [Form A]
Result: 13.3
